Taken from paper PMC6892409.

# tgt: TNIK (Homo sapiens, UniProt Q9UKE5)
# Sequence (Q9UKE5 whole entry): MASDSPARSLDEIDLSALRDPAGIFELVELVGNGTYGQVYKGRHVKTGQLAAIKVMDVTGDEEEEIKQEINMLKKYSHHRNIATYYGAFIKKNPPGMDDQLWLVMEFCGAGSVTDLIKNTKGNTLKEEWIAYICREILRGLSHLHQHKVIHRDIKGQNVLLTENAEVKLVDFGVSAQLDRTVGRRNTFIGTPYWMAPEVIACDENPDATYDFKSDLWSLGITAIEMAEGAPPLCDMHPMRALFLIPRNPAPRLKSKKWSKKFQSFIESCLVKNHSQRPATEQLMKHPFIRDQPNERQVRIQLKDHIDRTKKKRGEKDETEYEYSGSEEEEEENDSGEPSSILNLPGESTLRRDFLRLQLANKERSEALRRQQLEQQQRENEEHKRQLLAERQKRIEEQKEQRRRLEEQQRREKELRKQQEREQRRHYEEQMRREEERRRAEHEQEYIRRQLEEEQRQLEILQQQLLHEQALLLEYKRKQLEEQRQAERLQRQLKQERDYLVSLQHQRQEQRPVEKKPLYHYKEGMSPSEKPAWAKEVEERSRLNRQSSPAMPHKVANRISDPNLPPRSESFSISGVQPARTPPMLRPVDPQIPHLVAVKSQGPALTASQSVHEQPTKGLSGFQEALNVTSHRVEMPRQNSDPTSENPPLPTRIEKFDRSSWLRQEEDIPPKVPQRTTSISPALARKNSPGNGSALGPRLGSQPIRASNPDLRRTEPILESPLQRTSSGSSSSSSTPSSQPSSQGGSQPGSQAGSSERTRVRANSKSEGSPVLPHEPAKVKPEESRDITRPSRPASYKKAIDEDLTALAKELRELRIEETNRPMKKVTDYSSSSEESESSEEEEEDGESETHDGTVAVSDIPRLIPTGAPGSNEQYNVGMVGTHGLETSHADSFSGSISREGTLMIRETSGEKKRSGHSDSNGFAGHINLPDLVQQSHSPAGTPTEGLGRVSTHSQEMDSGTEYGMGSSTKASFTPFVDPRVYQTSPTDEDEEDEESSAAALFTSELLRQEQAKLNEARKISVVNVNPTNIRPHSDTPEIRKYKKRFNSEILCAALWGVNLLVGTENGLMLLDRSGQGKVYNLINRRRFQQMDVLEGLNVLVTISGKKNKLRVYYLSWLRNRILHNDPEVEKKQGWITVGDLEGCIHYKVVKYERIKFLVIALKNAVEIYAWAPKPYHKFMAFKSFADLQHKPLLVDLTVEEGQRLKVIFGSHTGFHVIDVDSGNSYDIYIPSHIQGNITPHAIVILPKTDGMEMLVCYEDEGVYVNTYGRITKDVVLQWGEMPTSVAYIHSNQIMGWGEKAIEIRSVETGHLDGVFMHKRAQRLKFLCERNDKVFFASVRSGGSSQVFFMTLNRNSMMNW
pIC50: −log10 of the molar value.
List of pIC50 values.

1) CC(C)[C@H](CO)Nc1nc(Nc2cccc(Cl)c2)c2ncn(C(C)C)c2n1 | > 6.30

Continue with the molecule presented below.
Request: Lab request: please report pIC50 under test system TNIK (Homo sapiens, UniProt Q9UKE5) for `Oc1c2ccccc2c2c3c(cccc13)N=N2`
Response: > 6.30
